Tested on: Cryptococcus deneoformans
PROTOCOL_TEXT: Antimicrobial activity against Cryptococcus neoformans var.neoformans serotype D ATCC 28952 by broth microdilution method
Format: functional
QUANTITY_KIND: MFC
Answer format: value, then unit.

Bench note: what MFC did "CN(C)c1ccc(CNC(=O)c2ccoc2)cc1" show?
320 µg/mL

Bench note: what MFC did "O=C(NCc1cccnc1)c1ccoc1" show?
320 µg/mL

Bench note: what MFC did "O=C(Nn1cnnc1)c1ccoc1" show?
40 µg/mL

Bench note: what MFC did "O=C(NCCCO)c1ccoc1" show?
80 µg/mL

###

Test system: Sporothrix schenckii
PROTOCOL_TEXT: Antimicrobial activity against Sporothrix schenckii ATCC 1146 by broth microdilution method
Assay type: functional
In this section, each of the compounds is paired with its reported MIC.
Answer in mg/L, number only, no unit symbol.

Please review the entries below; each comes with its answer.
STRUCTURE_STRING: O=C(NCc1cccnc1)c1ccoc1
TARGET_UNDER_TEST: Sporothrix schenckii
QUANTITY_KIND: MIC
TEST_VALUE: 320
//
STRUCTURE_STRING: Cc1ccc(S(=O)(=O)NNC(=O)c2ccoc2)cc1
TARGET_UNDER_TEST: Sporothrix schenckii
QUANTITY_KIND: MIC
TEST_VALUE: 160
//
STRUCTURE_STRING: C[C@@H]1[C@H](O)[C@@H](C)/C=C/C=C/C=C/C=C/C=C/C=C/C=C/[C@H](O[C@@H]2O[C@H](C)[C@@H](O)[C@H](N)[C@@H]2O)C[C@@H]2O[C@](O)(C[C@@H](O)C[C@@H](O)[C@H](O)CC[C@@H](O)C[C@@H](O)CC(=O)O[C@H]1C)C[C@H](O)[C@H]2C(=O)O
TARGET_UNDER_TEST: Sporothrix schenckii
QUANTITY_KIND: MIC
TEST_VALUE: 0.5
//
STRUCTURE_STRING: CN(C)c1ccc(CNC(=O)c2ccoc2)cc1
TARGET_UNDER_TEST: Sporothrix schenckii
QUANTITY_KIND: MIC
TEST_VALUE: 320
//
STRUCTURE_STRING: O=C(NNc1c(F)c(F)c(F)c(F)c1F)c1ccoc1
TARGET_UNDER_TEST: Sporothrix schenckii
QUANTITY_KIND: MIC
TEST_VALUE: 320
//
STRUCTURE_STRING: O=C(Nc1ccccc1O)c1ccoc1
TARGET_UNDER_TEST: Sporothrix schenckii
QUANTITY_KIND: MIC
TEST_VALUE: 320
//
STRUCTURE_STRING: O=C(NCc1ccncc1)c1ccoc1
TARGET_UNDER_TEST: Sporothrix schenckii
QUANTITY_KIND: MIC
TEST_VALUE: 320
//
STRUCTURE_STRING: O=C(NCc1ccccn1)c1ccoc1
TARGET_UNDER_TEST: Sporothrix schenckii
QUANTITY_KIND: MIC
TEST_VALUE: 320

Bench note: what MIC did "O=C(NNc1ccccc1)c1ccoc1" show?
10

Bench note: what MIC did "CN(C)C(=O)c1ccoc1" show?
160

Bench note: what MIC did "N=C(NC(=O)c1ccoc1)c1ccccc1" show?
320

The measured values listed here are drawn from ChEMBL document CHEMBL1146380.
